Recorded values, source patent US9505768B2.

# TARGET_SYSTEM: human TLR4 (Homo sapiens, UniProt O00206+Q9Y6Y9)
# Construct: host or cells: HEK293 (HEK Blue) cells with NFκB/SEAP reporter
# Sequence (O00206 24-839): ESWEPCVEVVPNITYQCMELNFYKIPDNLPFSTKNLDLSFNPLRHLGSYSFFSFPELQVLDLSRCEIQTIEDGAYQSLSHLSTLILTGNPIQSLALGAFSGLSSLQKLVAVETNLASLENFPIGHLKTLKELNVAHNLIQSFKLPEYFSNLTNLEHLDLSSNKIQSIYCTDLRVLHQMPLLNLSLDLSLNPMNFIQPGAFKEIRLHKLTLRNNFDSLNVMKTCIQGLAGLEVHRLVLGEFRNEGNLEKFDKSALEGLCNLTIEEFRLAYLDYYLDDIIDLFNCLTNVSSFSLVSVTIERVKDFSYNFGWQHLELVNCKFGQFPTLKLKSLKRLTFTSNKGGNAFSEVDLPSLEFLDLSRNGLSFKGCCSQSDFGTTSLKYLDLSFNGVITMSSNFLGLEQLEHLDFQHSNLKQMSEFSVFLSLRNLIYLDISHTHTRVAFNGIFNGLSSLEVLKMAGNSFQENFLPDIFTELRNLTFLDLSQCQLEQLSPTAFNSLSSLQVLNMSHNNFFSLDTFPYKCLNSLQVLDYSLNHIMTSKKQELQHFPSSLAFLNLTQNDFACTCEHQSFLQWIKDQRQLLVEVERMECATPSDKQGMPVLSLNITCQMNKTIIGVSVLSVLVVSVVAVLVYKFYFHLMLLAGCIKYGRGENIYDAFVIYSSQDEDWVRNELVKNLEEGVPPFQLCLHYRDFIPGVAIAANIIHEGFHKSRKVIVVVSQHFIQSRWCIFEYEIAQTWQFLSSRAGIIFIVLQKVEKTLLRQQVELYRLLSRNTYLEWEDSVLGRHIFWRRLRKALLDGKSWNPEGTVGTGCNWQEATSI
# Sequence (Q9Y6Y9 19-160): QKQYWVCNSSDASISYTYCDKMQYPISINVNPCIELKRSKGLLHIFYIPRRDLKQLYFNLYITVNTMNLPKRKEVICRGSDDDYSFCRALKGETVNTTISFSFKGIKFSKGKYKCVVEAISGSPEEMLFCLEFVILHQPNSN
# ASSAY_NOTES: Human TLR4 HEK Blue NFκB/SEAP reporter assay
# Format: cell-based
# REPORTED_CONDITIONS: hTLR4 HEK293 transfectoma; all compounds tested at 10 μM; Cmpd 1 set at 100
READOUT_NAME: human TLR4, values normalized to Cmpd 1

Record excerpt, results attached:
Asked: Report human TLR4, values normalized to Cmpd 1 for CCCCCNC(=O)CSc1nc2c([nH]c3ccccc32)c(=O)n1-c1ccccc1
Given back: 23

Asked: Report human TLR4, values normalized to Cmpd 1 for N#CCn1c2ccccc2c2nc(SCC(=O)NC3CCCCC3)n(-c3ccccc3)c(=O)c21
Given back: 19

Asked: Report human TLR4, values normalized to Cmpd 1 for CCNC(=O)CSc1nc2c([nH]c3ccccc32)c(=O)n1-c1ccccc1
Given back: 8

Asked: Report human TLR4, values normalized to Cmpd 1 for CC(C)CNC(=O)CSc1nc2c([nH]c3ccccc32)c(=O)n1-c1ccccc1
Given back: 21

Asked: Report human TLR4, values normalized to Cmpd 1 for CC(C)(C)NC(=O)CSc1nc2c([nH]c3ccccc32)c(=O)n1-c1ccccc1
Given back: 6

(I) O=C(CSc1nc2c([nH]c3ccccc32)c(=O)n1-c1ccc2ccccc2c1)NC1CCCCC1
(II) CC(C)CCNC(=O)CSc1nc2c([nH]c3ccccc32)c(=O)n1-c1ccccc1
Asked: Kindly compare I with II and tell me which has the lower human TLR4, values normalized to Cmpd 1 figure. The response must carry the label of the picked entry.
Given back: I
(I: 3, II: 38)
